Assay: Tmax in Sprague-Dawley rat at 9 mg/kg, po
Format: ADME, organism-based
Set-up: dose 9 mg/kg, route oral
Details: in vivo
PROPERTY_NAME: Tmax (h)
Numbers only; they are read as h.

Lab book: Tmax of "CS(=O)(=O)c1ccccc1-c1ccc2c(c1)OC[C@H]1[C@H](CNC(=O)c3ccc(Cl)s3)OC(=O)N21" noted as 1

* * *

Here's what we have: IC50 numbers for Coagulation factor X (Homo sapiens, UniProt P00742).
Numbers only; they are read as nM.

[
  {
    "COMPOUND_STRUCTURE": "O=C(NC[C@@H]1OC(=O)N2c3ccc(N4CC[C@@H](O)CC4=O)cc3OC[C@@H]12)c1ccc(Cl)s1",
    "IC50 / nM": 130
  }
]

Lab book: IC50 of "CC(=O)N(C)c1ccc2c(c1)OC[C@H]1[C@H](CNC(=O)c3ccc(Cl)s3)OC(=O)N21" noted as 87.2

Lab book: IC50 of "O=C(NC[C@@H]1OC(=O)N2c3ccc(N4CCOCC4=O)cc3OC[C@@H]12)C(=O)Nc1ccc(Cl)s1" noted as 560

Lab book: IC50 of "O=C(NC[C@@H]1OC(=O)N2c3ccc(N4CCOCC4=O)cc3OC[C@@H]12)c1ccc(Cl)cc1" noted as 160

Lab book: IC50 of "O=C(NC[C@@H]1OC(=O)N2c3ccc(N4CCOCC4=O)cc3OC[C@@H]12)c1ccc(Cl)s1" noted as 3.41

Lab book: IC50 of "O=C(NC[C@@H]1OC(=O)N2c3ccc(N4CCOCC4=O)cc3OC[C@@H]12)c1ccc(Cl)cn1" noted as 710

Hello, the source for this data is ChEMBL document CHEMBL3351225, in case you need it.
